meta.source: patent US20240316038A1

test.system: APOL1 G2 (Homo sapiens, UniProt O14791, DEL388-389)
Sequence (O14791 with tags, fused parts or gaps DEL388-389): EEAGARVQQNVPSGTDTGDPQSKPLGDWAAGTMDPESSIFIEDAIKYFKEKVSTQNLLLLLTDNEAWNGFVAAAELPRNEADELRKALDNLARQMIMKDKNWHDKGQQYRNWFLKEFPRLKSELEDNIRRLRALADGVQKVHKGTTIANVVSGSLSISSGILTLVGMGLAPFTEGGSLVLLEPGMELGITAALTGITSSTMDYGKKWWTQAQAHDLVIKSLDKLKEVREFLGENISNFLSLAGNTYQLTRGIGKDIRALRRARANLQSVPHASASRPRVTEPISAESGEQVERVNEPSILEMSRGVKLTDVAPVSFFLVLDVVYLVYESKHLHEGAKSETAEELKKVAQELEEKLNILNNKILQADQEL
method.summary: Rescue of HEK293 cell death caused by overexpression of APOL1 (CellTiter-Glo luminescence), HEK293/T-REx APOL1 G2/clone #2
stated.conditions: reversal of cell death caused by overexpression of APOL1; geometric mean of at least 2 assay runs, † = single assay run (technical duplicate)
Experimental: A HEK293 clonal cell line overexpressing APOL1 G2 (HEK293/T-REx APOL1 G2/clone #2) was maintained in 1×DMEM-GlutaMax (Gibco, 10569-010) media with 10% tetracycline-free FBS (Takara Bio USA, 631101), 5 μg/mL Blasticidin (Gibco, A1113903), and 100 μg/mL Zeocin (Invitrogen, R25001) in T75 flasks. […] The suspension was gently mixed, and cells were counted using a Countess Cell Counting Chamber (Invitrogen). […] Luminescence was measured on an Envision plate reader. […]
pEC50: −log10 of the molar value.
In this section, each of the compounds is paired with its reported pEC50.
quantity: pEC50

compound="CN(c1ccc(OC[C@@H](O)CN(CCc2cccc(Cl)c2)CC2CC2)cc1)S(C)(=O)=O [Compound 59]" value_observed=5.97
compound="CCN(CCc1cccc(Cl)c1)C[C@H](O)COc1ccc(N(C)S(C)(=O)=O)cc1 [Compound 60]" value_observed=6.51
compound="CS(=O)(=O)c1ccc(OC[C@@H]2CCCN(CC(O)c3cccc(Cl)c3)C2)cc1 (single isomer, unassigned) [Compound 22]" value_observed=5.18
compound="C[C@@H]1CN(CCc2cc(Cl)cc(C#N)c2)C[C@H]1COc1ccc(S(=O)(=O)C(C)(C)CO)cc1 [Compound 166]" value_observed=7.75
compound="CS(=O)(=O)c1ccc(CCC2CCCN(CCc3cccc(Cl)c3)C2)cc1 (single isomer, unassigned) [Compound 41]" value_observed=5.55
compound="CC(Cc1cccc(Cl)c1)NC[C@@H](O)COc1ccc(N(C)S(C)(=O)=O)cc1 (single isomer, unassigned) [Compound 89]" value_observed=5.69
compound="C[C@@H]1C[C@H](COc2ccc(S(C)(=O)=O)cc2)CN1CC(O)c1cccc(C#N)c1 (single isomer, unassigned) [Compound 117]" value_observed=5.91

* * *

test.system: APOL1 G2 (Homo sapiens, UniProt O14791, DEL388-389)
Construct: expressed in transfected cells; host or cells: HEK293 T-REx clonal lines: HEK T-REx/GCaMP6f/APOL1 G2 K6.3 in A1, HEK293/T-REx APOL1 G2/clone #2 in A2
method.summary: APOL1 calcium transport inhibition assay (GCaMP6f calcium influx, FLIPR) in HEK T-REx/GCaMP6f/APOL1 G2 K6.3 cells
Type: cell-based
stated.conditions: inhibition of APOL1-mediated calcium influx; geometric mean of at least 2 assay runs, † = single assay run (technical duplicate)
From the text: A HEK293 clonal cell line was generated to stably express GCaMP6f, a genetically encoded calcium indicator, and inducibly express APOL1 G2 (HEK T-REx/GCaMP6f/APOL1 G2 K6.3). […]
Assign labels as follows, please: Condition met for AC50 below 1000 nM; Condition not met for AC50 equal to or exceeding 1000 nM.

compound="CS(=O)(=O)c1ccc(CCC2CCCN(CCc3cccc(Cl)c3)C2)cc1 (single isomer, unassigned) [Compound 41]" class="Condition not met"
compound="CS(=O)(=O)c1ccc(OC[C@H](O)CN[C@H]2C[C@H](c3cccc(Cl)c3)C2)cc1 [Compound 67]" class="Condition met"
compound="CS(=O)(=O)c1ccc(OC[C@H](O)CNCCc2cccc(Cl)c2)cc1 [Compound 94]" class="Condition not met"
compound="CS(=O)(=O)c1ccc(OC[C@@H]2CCCN(CC(O)c3cccc(Cl)c3)C2)cc1 (some centres unmarked) [Compound 20]" class="Condition not met"
compound="CC1CC(COc2ccc(S(C)(=O)=O)cc2)CN1CCc1cccc(C#N)c1 (single isomer, unassigned) [Compound 137]" class="Condition not met"
compound="C[C@H]1CN(CCc2cccc(Cl)c2)C[C@@H]1COc1ccc(S(C)(=O)=O)cc1 (single isomer, unassigned) [Compound 154]" class="Condition met"
compound="CN(c1ccc(OC[C@H](O)CN2CCOC(c3cccc(Cl)c3)C2)cc1)S(C)(=O)=O (single isomer, unassigned) [Compound 84]" class="Condition not met"
compound="C[C@@H]1C[C@H](COc2ccc(S(=O)(=O)CCO)cc2)CN1CCc1cc(Cl)cc(C#N)c1 [Compound 165]" class="Condition met"
compound="C[C@H]1CN(CCc2cccc(Cl)c2)C[C@@H]1COc1ccc(S(=O)(=O)CCCS(C)(=O)=O)cc1 (single isomer, unassigned) [Compound 176]" class="Condition met"
compound="CN(c1ccc(OC[C@@H](O)CNCCc2ccccc2OC(F)F)cc1)S(C)(=O)=O [Compound 101]" class="Condition not met"
compound="C[C@@H]1CN(CCc2cccc(Cl)c2)C[C@H]1COc1ccc(S(C)(=O)=O)cc1 [Compound 133]" class="Condition met"
compound="CS(=O)(=O)c1ccc(OC[C@H](O)CNC(Cc2cccc(Cl)c2)C2CC2)cc1 (some centres unmarked) [Compound 102]" class="Condition not met"
compound="CN=S(C)(=O)c1ccc(OC[C@@H]2CN(CCc3cc(Cl)cc(C#N)c3)CCN2)cc1 (single isomer, unassigned) [Compound 187]" class="Condition met"
